assay: yeast display, Sf9 membrane polyspecificity reagent, FACS + sequencing; frameworks hold sequencing errors
Reported Property: polyreactivity (PSR sort gate)

Some sequences with known polyreactivity (PSR sort gate) results, for comparison:
[
  {
    "Residue String": "QVQLVESGGGLVQAGGRLRLSCAASGSTFPYYAMGWYRQAPGKERELVAVITRGGSTYYADSVKGRFTISRDNAQNTVYLQMNSLKPEDTAVYYCAARYTPGFCYWGQGTQVTVSS",
    "Observed Result": "high polyreactivity"
  },
  {
    "Residue String": "QVQLVESGGGLVQAGGSLRLSCAASGSTFKRYAMGWYRQAPGKDRELVAAIRRGGITNYADSVKGRFTISRDNAKNTVYLQMNSLKPEDTAVYYCAKDGVTYPYSYEYDYWGQGTQVTVSS",
    "Observed Result": "low polyreactivity"
  },
  {
    "Residue String": "QVQLVESGGGLVQEGGSLRLSCAASGRTFAYNVKGRYRQAPGKVRELVAGISFGAGSTYYADSVKGRFTISRDNAKNTVYLHMNSLKPEDTAVYYCATRRRGTRYPRGYDYWGQGTQVTVSS",
    "Observed Result": "high polyreactivity"
  },
  {
    "Residue String": "QVQLVESGGGLVQAGGSLRLSCAASGFTFGPYAMGWYRQAPGKERELVAAIRSGGSTNYADSVKGRFTISRDNAKNTVYLQMNSLKPEDTAVYYCAAGYRRGWVTMGYWGQGTQVTVSS",
    "Observed Result": "high polyreactivity"
  },
  {
    "Residue String": "QVQLVESGGGLVQAGGSLRLSCAASGRIFFANAMGWYRQAPGKERELVAAISYSGTSTYYADSVKGRFTISRDNAKNSVYLQMNSLKPEDTAVYYCNAGRYIKMGDWGQGTQVTVSS",
    "Observed Result": "high polyreactivity"
  }
]

Per the record, `QVQLVESGGGLVQAGGSLRLSCAASGSIFSGYMGWYRQAPGKDRELVATITSGGSTYADSVKGRFTISRDNAKNSVYLQMNILKPEDTAVYYCARPRPVIQYSGLHYDYWGQGTEVTVSS` has polyreactivity (PSR sort gate) of low polyreactivity

For reference, reported polyreactivity (PSR sort gate) for `QVQLVESGGGLVQAGGSLRLSCAASGFIFTDNAMGWYRQAPGKEREFVAAITYSGGSTYYADSVKGRFTISRDNAKNTVYLQMNSLKPEDTAVYYCNKDVFPAPGGVTAYEYEYWGQGTQVTVSS` stands at low polyreactivity

`QVQLVESGGGLVQAGGSLRLSCAASGSTFVRNDMGWYRQAPGKERELVAAINGDGRTYYADSVKGRFTISRDNAKNTVYLQMNSLKPEDTAVYYCAADWKSSRSYSYEMDYWGQGTQVTVSS` yielded polyreactivity (PSR sort gate) of low polyreactivity

Record summary for `FVQAGGSLRLTCAASGSTFYGNAMGWYRQATGKERELVAGITGDGGSTYYADSVKGRFTISRDNAKNTVYLQMNSLKPEDTAVYYCAVDVIVLGQWPRQLDEFDYWGQGTQVTVSS` : reported polyreactivity (PSR sort gate) = low polyreactivity

Sample `QVQLVESGGGLVQAGGSLRLSCAASGSTFSRYAMGWYRQAPGKERELVAAISRGGNTYYADSVKGRFTISRDNAKNTVYLQMNSLKPEDTAVYYCNRYSKLYNTMDYWGQGTQVTVSS` ; polyreactivity (PSR sort gate) observed: high polyreactivity
